Tested on: THRa homodimer (NR concentration 90 nM)
method-notes: PBM binding z-score (relative to random genomic background probes); higher = stronger binding; sequences stand for … in GC…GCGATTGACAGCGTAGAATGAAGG
Kindly supply the reported PBM binding z-score values for the records listed here.
Number only, no unit.

May I ask what PBM binding z-score has been recorded for ATCTCTAGGTAAAGTCCAGTGAAAGATCGATAGA ?
0.0822

Item under review: CGAACTAGGTCAGGGACAGTGAATCTCCGCACGC . Reported PBM binding z-score?
1.07

Which PBM binding z-score is listed for CAAACTAGGTCACGAAAGGTCATAGTCGAATGAC ?
2.8

Report PBM binding z-score for TCAGACAGATGAAGGTAACTCAGGTACGCAGTCG please.
-0.261
